system: Pseudomonas aeruginosa; experiment: Antibacterial activity against Pseudomonas aeruginosa PAE15-14 assessed as inhibition of bacterial growth incubated for 24 hrs by broth microdilution method; assay type: functional; conditions: read-out: MIC100
Positions of bridges follow the written chain, without caps; N, C: chain ends. Non-standard residues stand in square brackets, D forms with d. Residues, ends and D or L forms follow the SMILES beside them. *: point of attachment. Benzoyl(4-Ph) = O=C(c1ccc(-c2ccccc2)cc1)*; Octanoyl = CCCCCCCC(=O)*; Dab = NCC[C@H](N)C(=O)O
parameter-measured: MIC (µg/mL)

CC(C)C[C@@H]1NC(=O)[C@@H](Cc2ccccc2)NC(=O)[C@H](CCN)NC(=O)[C@@H](NC(=O)[C@H](CCN)NC(=O)[C@@H](NC(=O)[C@H](CCN)NC(=O)c2ccc(-c3ccccc3)cc2)[C@@H](C)O)CCNC(=O)[C@H]([C@@H](C)O)NC(=O)[C@H](CCN)NC(=O)[C@H](CCN)NC1=O ({Benzoyl(4-Ph)}-[Dab]T[Dab][Dab][Dab][dF]L[Dab][Dab]T; lactam 4-C) ... 0.125
CC(C)CCCCC(=O)N[C@@H](CCN)C(=O)N[C@H](C(=O)N[C@@H](CCN)C(=O)N[C@H]1CCNC(=O)[C@H]([C@@H](C)O)NC(=O)[C@H](CCN)NC(=O)[C@H](CCN)NC(=O)[C@H](CC(C)C)NC(=O)[C@@H](Cc2ccccc2)NC(=O)[C@H](CCN)NC1=O)[C@@H](C)OC(=O)[C@@H]1CCCN1 ... 0.25
CCCCCCCC(=O)N[C@@H](CCN)C(=O)N[C@H](C(=O)N[C@@H](CCN)C(=O)N[C@H]1CCNC(=O)[C@H]([C@@H](C)O)NC(=O)[C@H](CCN)NC(=O)[C@H](CCN)NC(=O)[C@H](CC(C)C)NC(=O)[C@@H](Cc2ccccc2)NC(=O)[C@H](CCN)NC1=O)[C@@H](C)O (Octanoyl-[Dab]T[Dab][Dab][Dab][dF]L[Dab][Dab]T; lactam 4-C) ... 0.25
